Origin of values: ChEMBL document CHEMBL1961873

Task for the reader: assign each of the following compounds its reported inhibition.
System: Leucine-rich repeat serine/threonine-protein kinase 2 (Homo sapiens), Q5S007 [G2019S]
Sequence (Q5S007 whole entry G2019S): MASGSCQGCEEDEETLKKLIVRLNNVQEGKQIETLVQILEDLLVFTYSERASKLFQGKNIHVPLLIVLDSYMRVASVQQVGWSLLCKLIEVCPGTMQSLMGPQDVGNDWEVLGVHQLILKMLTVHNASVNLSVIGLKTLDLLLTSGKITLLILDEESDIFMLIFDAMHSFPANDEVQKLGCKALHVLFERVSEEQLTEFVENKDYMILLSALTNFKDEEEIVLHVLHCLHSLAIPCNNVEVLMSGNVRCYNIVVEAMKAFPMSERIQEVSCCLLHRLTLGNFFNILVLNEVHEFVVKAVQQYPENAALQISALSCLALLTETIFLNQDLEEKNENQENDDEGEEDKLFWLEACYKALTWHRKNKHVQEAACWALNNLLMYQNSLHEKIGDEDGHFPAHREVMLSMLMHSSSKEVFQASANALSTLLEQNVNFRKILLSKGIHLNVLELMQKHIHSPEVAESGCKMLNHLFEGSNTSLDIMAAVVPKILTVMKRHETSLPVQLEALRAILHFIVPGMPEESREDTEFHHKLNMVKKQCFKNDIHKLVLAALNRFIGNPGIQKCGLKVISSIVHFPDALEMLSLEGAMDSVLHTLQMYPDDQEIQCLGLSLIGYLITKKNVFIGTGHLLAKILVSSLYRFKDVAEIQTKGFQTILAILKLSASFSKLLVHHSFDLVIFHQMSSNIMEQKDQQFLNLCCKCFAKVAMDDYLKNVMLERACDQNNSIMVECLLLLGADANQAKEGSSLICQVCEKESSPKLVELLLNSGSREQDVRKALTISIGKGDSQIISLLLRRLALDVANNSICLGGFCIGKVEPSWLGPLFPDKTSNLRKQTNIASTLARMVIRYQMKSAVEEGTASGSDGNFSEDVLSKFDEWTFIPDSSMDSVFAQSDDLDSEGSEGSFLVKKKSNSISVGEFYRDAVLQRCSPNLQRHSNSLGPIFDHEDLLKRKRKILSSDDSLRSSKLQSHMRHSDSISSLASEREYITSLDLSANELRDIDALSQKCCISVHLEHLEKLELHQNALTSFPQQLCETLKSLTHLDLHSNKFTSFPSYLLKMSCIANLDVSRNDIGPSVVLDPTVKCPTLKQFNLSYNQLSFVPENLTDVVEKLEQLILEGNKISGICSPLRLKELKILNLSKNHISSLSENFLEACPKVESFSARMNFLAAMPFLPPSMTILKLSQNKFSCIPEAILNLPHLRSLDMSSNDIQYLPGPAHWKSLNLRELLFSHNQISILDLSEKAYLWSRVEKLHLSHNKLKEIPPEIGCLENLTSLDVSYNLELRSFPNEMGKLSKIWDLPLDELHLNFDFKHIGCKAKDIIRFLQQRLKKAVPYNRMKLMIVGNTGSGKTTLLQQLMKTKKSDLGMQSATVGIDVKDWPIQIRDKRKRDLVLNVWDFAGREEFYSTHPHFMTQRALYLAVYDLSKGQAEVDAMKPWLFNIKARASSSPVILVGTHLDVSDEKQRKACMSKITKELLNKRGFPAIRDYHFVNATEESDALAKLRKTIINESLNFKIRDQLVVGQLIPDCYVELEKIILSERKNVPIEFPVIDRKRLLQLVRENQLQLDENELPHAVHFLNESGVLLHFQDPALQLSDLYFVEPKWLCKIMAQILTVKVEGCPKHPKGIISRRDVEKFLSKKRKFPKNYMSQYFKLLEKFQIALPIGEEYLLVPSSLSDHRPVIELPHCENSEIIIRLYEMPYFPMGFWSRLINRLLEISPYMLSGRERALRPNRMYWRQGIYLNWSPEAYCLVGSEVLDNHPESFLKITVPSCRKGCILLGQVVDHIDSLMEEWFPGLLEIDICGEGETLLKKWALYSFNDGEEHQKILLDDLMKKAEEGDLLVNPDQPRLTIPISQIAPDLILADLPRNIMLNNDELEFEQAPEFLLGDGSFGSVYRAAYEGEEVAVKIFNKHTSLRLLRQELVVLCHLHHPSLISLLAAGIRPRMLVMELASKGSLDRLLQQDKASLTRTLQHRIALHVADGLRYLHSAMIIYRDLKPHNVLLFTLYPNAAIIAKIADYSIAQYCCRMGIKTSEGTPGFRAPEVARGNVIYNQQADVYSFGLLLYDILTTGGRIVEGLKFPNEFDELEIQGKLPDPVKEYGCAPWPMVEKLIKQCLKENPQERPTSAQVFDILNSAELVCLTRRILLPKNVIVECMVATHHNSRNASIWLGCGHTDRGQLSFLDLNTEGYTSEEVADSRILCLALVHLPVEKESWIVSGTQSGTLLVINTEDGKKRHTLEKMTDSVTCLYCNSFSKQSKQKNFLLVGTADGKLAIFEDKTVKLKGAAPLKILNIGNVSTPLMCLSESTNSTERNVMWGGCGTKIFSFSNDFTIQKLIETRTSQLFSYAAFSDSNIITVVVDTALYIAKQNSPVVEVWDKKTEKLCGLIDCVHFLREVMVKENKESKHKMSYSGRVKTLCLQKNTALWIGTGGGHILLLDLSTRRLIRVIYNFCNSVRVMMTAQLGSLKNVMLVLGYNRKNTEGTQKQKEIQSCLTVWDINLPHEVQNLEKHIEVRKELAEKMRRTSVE
Settings: at 1 µM
Give bare numbers, in %.

These solved cases illustrate the format of a correct answer.
structure_notation | inhibition / %
CC1(C)CC(n2cnc(-c3ccc(F)cc3)c2-c2ccnc(N)n2)CC(C)(C)N1 | 6.19
COc1ccccc1-c1cc(/C=C2\C(=O)Nc3ncc(Br)cc32)cc(Br)c1O | 55.3
CNC(=O)c1ncccc1Nc1nc(Nc2cc3c(cc2OC)CCCN3C(=O)CN(C)C)nc2[nH]ccc12 | 64.5
COc1ccc2ncn(-c3cc(O[C@H](C)c4ccccc4C(F)(F)F)c(C(N)=O)s3)c2c1 | 31
CS(=O)(=O)CCNCc1ccc(-c2ccc3ncnc(Nc4ccc(OCc5cccc(C(F)(F)F)c5)cc4)c3c2)o1 | 7.8
CN(C)CCNC(=O)Nc1ccc(N(C)c2ccnc(Nc3ccc(CS(C)(=O)=O)cc3)n2)cc1 | 23
CCN1CCC(C(=O)Nc2n[nH]c3nnc(-c4cccc(F)c4F)cc23)CC1 | 1.7
CCS(=O)(=O)c1ccc(OC)c(Nc2ncc(-c3cccc(F)c3)o2)c1 | 27.9

Next up:
Problem: Answer with the recorded inhibition for the compound listed here: "Cc1cc(O)cc(C)c1/C=C/c1cncc(C(=O)OC(C)(C)C)c1"
Result: 10.9

---

Task for the reader: assign each of the following molecules its reported inhibition.
Biological target: Serine/threonine-protein kinase 3 (Homo sapiens) (UniProt Q13188);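 note: reported value is the mean percent inhibition of MST2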
Sequence (Q13188 whole entry): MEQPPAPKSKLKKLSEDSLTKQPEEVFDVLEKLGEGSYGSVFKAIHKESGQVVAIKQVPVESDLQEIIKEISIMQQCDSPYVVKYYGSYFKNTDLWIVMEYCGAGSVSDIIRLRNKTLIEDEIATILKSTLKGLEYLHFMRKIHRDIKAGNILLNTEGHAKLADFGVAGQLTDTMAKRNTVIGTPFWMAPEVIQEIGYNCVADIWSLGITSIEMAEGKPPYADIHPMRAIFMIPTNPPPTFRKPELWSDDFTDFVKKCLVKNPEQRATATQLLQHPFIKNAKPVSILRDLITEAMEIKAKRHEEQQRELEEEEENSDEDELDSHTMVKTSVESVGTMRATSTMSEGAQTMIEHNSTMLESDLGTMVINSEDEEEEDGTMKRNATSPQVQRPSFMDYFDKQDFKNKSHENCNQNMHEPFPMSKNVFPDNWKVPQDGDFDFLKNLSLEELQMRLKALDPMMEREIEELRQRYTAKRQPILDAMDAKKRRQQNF
Settings: at 0.1 µM
Give bare numbers, in %.

These solved cases illustrate the format of a correct answer.
structure_notation | study_target | quantity_kind | result_value
COc1cc(Nc2ncc(-c3ccccc3)o2)cc(OC)c1 | Serine/threonine-protein kinase 3 (Homo sapiens) (UniProt Q13188) | inhibition | 6.11
CCS(=O)(=O)c1ccc(OC)c(Nc2ncc(-c3cccc(F)c3)o2)c1 | Serine/threonine-protein kinase 3 (Homo sapiens) (UniProt Q13188) | inhibition | 5.69
CCOc1ccc2c(-c3ccnc(Nc4cc(OC)cc(C(F)(F)F)c4)n3)cnn2n1 | Serine/threonine-protein kinase 3 (Homo sapiens) (UniProt Q13188) | inhibition | -0.19
O=C(O[C@H]1CN[C@H](C#Cc2cc3ncnc(Nc4ccc5c(cnn5Cc5ccccc5)c4)c3s2)C1)N1CCOCC1 | Serine/threonine-protein kinase 3 (Homo sapiens) (UniProt Q13188) | inhibition | 1.56
Cc1c2ccc(N(C)c3ccnc(Nc4cccc(S(N)(=O)=O)c4)n3)cc2nn1C | Serine/threonine-protein kinase 3 (Homo sapiens) (UniProt Q13188) | inhibition | 5.78
Cc1cc(O)cc(C)c1/C=C/c1cncc(C(N)=O)c1 | Serine/threonine-protein kinase 3 (Homo sapiens) (UniProt Q13188) | inhibition | 2.17
CS(=O)(=O)Nc1ccc(-c2cc(-c3ccccc3)cc(C(N)=O)c2N)cc1 | Serine/threonine-protein kinase 3 (Homo sapiens) (UniProt Q13188) | inhibition | -1.12
CN(C)CCNC(=O)Nc1ccc(N(C)c2ccnc(Nc3ccc(CS(C)(=O)=O)cc3)n2)cc1 | Serine/threonine-protein kinase 3 (Homo sapiens) (UniProt Q13188) | inhibition | 6.63
COC(=O)Nc1nc2cc(Oc3ccc(NC(=O)Nc4ccccc4)cc3)ccc2[nH]1 | Serine/threonine-protein kinase 3 (Homo sapiens) (UniProt Q13188) | inhibition | 5.39
COc1ccc(-c2nn3ncccc3c2-c2ccnc(Nc3ccc(F)c(F)c3)n2)cc1 | Serine/threonine-protein kinase 3 (Homo sapiens) (UniProt Q13188) | inhibition | 5.53

Each molecule below has a recorded value; state its inhibition.
1. OCCCNc1nccc(-c2c(-c3ccc(F)cc3)nn3cc(C(F)(F)F)ccc23)n1
2. O=C1Nc2ccccc2/C1=C1\CCc2cc(O)ccc21

Result:
1. 4.28
2. 15.1

Each molecule below has a recorded value; state its inhibition.
1. CN(c1ccc(NC(=O)NCCN2CCOCC2)cc1)c1ccnc(Nc2ccc(CS(C)(=O)=O)cc2)n1
2. c1ccc(-c2n[nH]cc2-c2ccnc(-c3ccc(OCCn4ccnc4)cc3)c2)nc1
3. Cc1cc(O)cc(C)c1/C=C/c1cncc(C(=O)OC(C)(C)C)c1
4. CNC(=O)c1ncccc1Nc1nc(Nc2cc3c(cc2OC)CCCN3C(=O)CN(C)C)nc2[nH]ccc12
5. COc1cc(N2CCN(C(C)C)CC2)ccc1Nc1nc(Nc2cccc3ncccc23)c2cc[nH]c2n1
6. Cc1ccc(-c2cc3c(NC(=O)C4CC4)ncnc3o2)cc1

Result:
1. 6.91
2. -0.71
3. 2.81
4. 8.59
5. 0.03
6. 5.64

---

Task for the reader: assign each of the following molecules its reported inhibition.
Test system: Mast/stem cell growth factor receptor Kit (Homo sapiens), P10721 [V560G]
Sequence (P10721 whole entry V560G): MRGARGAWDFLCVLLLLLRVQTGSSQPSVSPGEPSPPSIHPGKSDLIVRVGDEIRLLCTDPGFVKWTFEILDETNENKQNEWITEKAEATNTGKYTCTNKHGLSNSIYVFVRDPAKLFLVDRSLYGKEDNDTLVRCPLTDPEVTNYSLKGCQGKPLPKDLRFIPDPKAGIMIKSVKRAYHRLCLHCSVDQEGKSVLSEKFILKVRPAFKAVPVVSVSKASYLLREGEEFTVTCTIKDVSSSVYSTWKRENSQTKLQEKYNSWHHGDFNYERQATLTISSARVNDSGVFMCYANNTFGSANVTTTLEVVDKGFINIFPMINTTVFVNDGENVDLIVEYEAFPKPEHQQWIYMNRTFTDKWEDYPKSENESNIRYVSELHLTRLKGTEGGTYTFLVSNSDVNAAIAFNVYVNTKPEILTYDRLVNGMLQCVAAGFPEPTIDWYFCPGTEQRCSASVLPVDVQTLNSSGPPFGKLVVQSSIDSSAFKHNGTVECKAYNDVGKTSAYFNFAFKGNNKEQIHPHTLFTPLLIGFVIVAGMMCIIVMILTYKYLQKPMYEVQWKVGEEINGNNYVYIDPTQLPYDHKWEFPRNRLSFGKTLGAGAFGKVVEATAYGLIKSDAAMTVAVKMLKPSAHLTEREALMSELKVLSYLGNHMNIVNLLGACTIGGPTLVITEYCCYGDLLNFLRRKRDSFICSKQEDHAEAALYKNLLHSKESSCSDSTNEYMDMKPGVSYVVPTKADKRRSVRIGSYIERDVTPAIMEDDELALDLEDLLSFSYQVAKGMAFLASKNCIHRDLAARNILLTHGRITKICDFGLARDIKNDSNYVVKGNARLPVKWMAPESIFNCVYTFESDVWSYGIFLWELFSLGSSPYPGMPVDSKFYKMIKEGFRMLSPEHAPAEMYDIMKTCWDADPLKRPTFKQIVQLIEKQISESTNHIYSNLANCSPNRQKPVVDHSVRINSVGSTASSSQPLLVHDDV
Conditions: at 0.1 µM
Numbers only, in %.

structure_notation | study_target | result_value
COc1cc(N2CCN(C(C)C)CC2)ccc1Nc1nc(Nc2cccc(F)c2C(=O)O)c2cc[nH]c2n1 | Mast/stem cell growth factor receptor Kit (Homo sapiens), P10721 [V560G] | -0.92

Each molecule below has a recorded value; state its inhibition.
1. CC1(C)CC(n2cnc(-c3ccc(F)cc3)c2-c2ccnc(N)n2)CC(C)(C)N1
2. Fc1ccc(Nc2nccc(-c3c(-c4ccc(C(F)(F)F)cc4)nn4ncccc34)n2)cc1F
3. NS(=O)(=O)c1ccc(N/N=C2\C(=O)Nc3ccc(C(=O)NCc4ccncc4)cc32)cc1
4. Cc1nnc(-c2cccc(-c3ccc(C(=O)NCC4CC4)cc3)c2)o1
5. N#Cc1cccc(Nc2ncc(-c3ccccc3)o2)c1
6. CCN1CCC(C(=O)Nc2n[nH]c3nnc(-c4cccc(F)c4F)cc23)CC1

Result:
1. 1.03
2. -1.76
3. 1.34
4. 0.29
5. 4.29
6. 0.02

---

Molecular target: Tyrosine-protein kinase JAK3 (Homo sapiens)
Conditions: at 1 µM
Description: GSK_PKIS: JAK3 mean inhibition at 1 uM [Nanosyn]
quantity_kind: inhibition (%)
Give bare numbers, in %.

structure_notation | study_target | unit_descriptor | inhibition
Cc1ccc(-c2cc3c(NC(=O)C4CC4)ncnc3o2)cc1 | Tyrosine-protein kinase JAK3 (Homo sapiens) | % | 2.42

Each compound below has a recorded value; state its inhibition.
1. Cc1cc(O)cc(C)c1/C=C/c1cncc(C(=O)OC(C)(C)C)c1
2. CCS(=O)(=O)c1ccc(OC)c(Nc2ncc(-c3cccc(F)c3)o2)c1

Result:
[6.16, 0.45]

---

Target: Fibroblast growth factor receptor 1 (Homo sapiens);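 note: values are the mean percent inhibition of FGFR1 across replicate measurements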
Conditions: at 1 µM
quantity_kind: inhibition (%)
Numbers only, in %.

These solved cases illustrate the format of a correct answer.
compound | unit_descriptor | inhibition
O=C(O[C@H]1CN[C@H](C#Cc2cc3ncnc(Nc4ccc5c(cnn5Cc5ccccc5)c4)c3s2)C1)N1CCOCC1 | % | -1.28
CC1=C(C(=O)Nc2ccc3[nH]nc(C)c3c2)C(c2ccc(C(F)(F)F)cc2)CC(=O)N1 (stereo not given) | % | 9.3
COC(=O)Nc1nc2ccc(Oc3ccc(NC(=O)Nc4cc(C(F)(F)F)ccc4F)cc3)cc2s1 | % | 16.9
c1ccc(-c2n[nH]cc2-c2ccnc(-c3ccc(OCCn4ccnc4)cc3)c2)nc1 | % | 3.09
COc1ccc(Nc2ncc(-c3ccccc3)o2)cc1OC | % | 5.44

Each compound below has a recorded value; state its inhibition.
1. Fc1ccc(Nc2nccc(-c3c(-c4ccc(C(F)(F)F)cc4)nn4ncccc34)n2)cc1F
2. CS(=O)(=O)Nc1ccc(-c2ccc3c(NC(=O)C4CC4)n[nH]c3c2)cc1
3. CNC(=O)c1sc(-n2cnc3cc(OC)c(OC)cc32)cc1OCc1ccccc1C(F)(F)F
4. Cc1nnc(-c2cccc(-c3ccc(C(=O)NCC4CC4)cc3)c2)o1
5. OCCCNc1nccc(-c2c(-c3ccc(F)cc3)nn3cc(C(F)(F)F)ccc23)n1
6. COC(=O)Nc1nc2cc(Oc3ccc(NC(=O)Nc4ccccc4)cc3)ccc2[nH]1

Result:
1: 4.6; 2: 6.36; 3: 7.69; 4: 0.61; 5: 6.47; 6: 1.47

---

Molecular target: Ephrin type-B receptor 4 (Homo sapiens);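 note: each value is a mean percent inhibition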
Sequence (whole entry): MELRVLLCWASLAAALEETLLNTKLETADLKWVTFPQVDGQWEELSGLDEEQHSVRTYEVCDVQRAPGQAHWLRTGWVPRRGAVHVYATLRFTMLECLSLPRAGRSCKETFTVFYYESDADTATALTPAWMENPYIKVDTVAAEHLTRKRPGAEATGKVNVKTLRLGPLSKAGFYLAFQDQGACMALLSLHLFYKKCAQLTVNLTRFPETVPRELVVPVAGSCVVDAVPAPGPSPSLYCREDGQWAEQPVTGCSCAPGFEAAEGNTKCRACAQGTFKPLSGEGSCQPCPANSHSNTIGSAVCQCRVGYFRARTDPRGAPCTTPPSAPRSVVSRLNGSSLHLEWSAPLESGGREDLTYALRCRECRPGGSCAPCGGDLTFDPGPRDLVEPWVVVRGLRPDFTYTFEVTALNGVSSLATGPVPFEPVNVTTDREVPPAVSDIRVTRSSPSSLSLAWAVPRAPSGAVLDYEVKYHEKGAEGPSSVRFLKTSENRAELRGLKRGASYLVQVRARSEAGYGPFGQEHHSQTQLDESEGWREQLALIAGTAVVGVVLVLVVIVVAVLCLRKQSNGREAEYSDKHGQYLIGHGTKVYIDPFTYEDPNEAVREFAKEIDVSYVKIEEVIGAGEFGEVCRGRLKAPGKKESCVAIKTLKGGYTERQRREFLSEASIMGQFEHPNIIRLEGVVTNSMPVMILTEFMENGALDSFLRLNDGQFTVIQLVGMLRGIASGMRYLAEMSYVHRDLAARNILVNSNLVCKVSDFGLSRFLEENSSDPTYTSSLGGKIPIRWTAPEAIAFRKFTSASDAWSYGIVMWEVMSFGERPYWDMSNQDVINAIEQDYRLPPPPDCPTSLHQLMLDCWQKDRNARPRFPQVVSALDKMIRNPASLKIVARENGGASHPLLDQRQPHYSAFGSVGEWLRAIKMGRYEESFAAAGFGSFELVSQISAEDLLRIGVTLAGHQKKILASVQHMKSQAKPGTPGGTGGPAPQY
Conditions: at 0.1 µM
quantity_kind: inhibition (%)
One number for each entry, in %.

These solved cases illustrate the format of a correct answer.
molecule | study_target | inhibition (%)
Cc1cc(O)cc(C)c1/C=C/c1cncc(C(N)=O)c1 | Ephrin type-B receptor 4 (Homo sapiens) | 9.23
CC(C)c1ccc(-c2cc(-c3c[nH]nc3-c3ccccn3)ccn2)cc1 | Ephrin type-B receptor 4 (Homo sapiens) | 0.47
COc1c(C(N)=O)cc(-c2ccc(Cl)cc2)cc1-c1ccc(S(N)(=O)=O)cc1 | Ephrin type-B receptor 4 (Homo sapiens) | 5.71
OCCCNc1nccc(-c2c(-c3ccc(F)cc3)nn3cc(C(F)(F)F)ccc23)n1 | Ephrin type-B receptor 4 (Homo sapiens) | 1.6
Cn1c(-c2nonc2N)nc2cnccc21 | Ephrin type-B receptor 4 (Homo sapiens) | 2.84
CS(=O)(=O)CCNCc1ccc(-c2ccc3ncnc(Nc4ccc(OCc5ccccc5)cc4)c3c2)o1 | Ephrin type-B receptor 4 (Homo sapiens) | 3.4
c1cnn2ncc(-c3ccnc(NCCCN4CCOCC4)n3)c2c1 | Ephrin type-B receptor 4 (Homo sapiens) | 1.21
COc1ccc(-c2nn3ncccc3c2-c2ccnc(Nc3ccc(F)c(F)c3)n2)cc1 | Ephrin type-B receptor 4 (Homo sapiens) | 1.49
CS(=O)(=O)CCNCc1ccoc1-c1ccc2ncnc(Nc3ccc(OCc4ccccc4)cc3)c2c1 | Ephrin type-B receptor 4 (Homo sapiens) | 0.88

Next up:
Problem: Answer with the recorded inhibition for the molecule listed here: CC1=C(C(=O)Nc2ccc3[nH]nc(C)c3c2)C(c2ccc(C(F)(F)F)cc2)CC(=O)N1 (stereo not given)
Result: 1.98
